Data provenance is ChEMBL document CHEMBL2040776.

Experiment: Antiinflammatory activity in BALB/c mouse peritoneal macrophages assessed as inhibition of LPS-induced TNFalpha production treated 1 hr before LPS challenge measured after 24 hrs by ELISA
Assay type: functional, cell-based
Conditions: Peritoneal macrophage cell
TEST_READOUT: IC50 (µM)
Quick reminder: number only, in µM, skip the unit.

COMPOUND	UNITS_SYMBOL	RECORDED_NUMBER
C[S+]([O-])c1ccc(-c2nc(-c3ccc(F)cc3)c(-c3ccncc3)[nH]2)cc1 (configuration not stated) [SB-203580]	µM	0.22

Would you mind telling me what IC50 value was observed for CCOC(=O)c1cc2cc3c(cc2nc1NC(=O)NC1CCCCC1)OCO3 ?
55
